- System: primary rat microglia
- Measurement Parameters: rat
Where a name gives a salt, the structure may show the parent alone.
Assay Endpoint: Fibrin % cell toxicity (%)
Quick note: give the figure in %, leave out the unit.

| Compound | Fibrin % cell toxicity [%] |
| --- | --- |
| CCN(CC)CCOC(=O)C1(C2CCCCC2)CCCCC1 [Dicyclomine] | 0 |
| CC[C@]1(O)C[C@H]2CN(CCc3c([nH]c4ccccc34)[C@@](C(=O)OC)(c3cc4c(cc3OC)N(C=O)[C@H]3[C@@](O)(C(=O)OC)[C@H](OC(C)=O)[C@]5(CC)C=CCN6CC[C@]43[C@@H]65)C2)C1 [Vincristine Sulfate] | 16 |
| NCCCCCC(=O)O [Aminocaproic Acid] | 1 |

Notebook: pull reported Fibrin % cell toxicity for primary rat microglia, entry CC(C)Cn1cnc2c(N)nc3ccccc3c21 [Imiquimod] 0

Request: Fibrin % cell toxicity, test system primary rat microglia, entry CO[C@H]1C[C@H](O[C@@H]2/C(C)=C/C[C@@H]3C[C@@H](C[C@]4(CC[C@H](C)[C@@H](C5CCCCC5)O4)O3)OC(=O)[C@@H]3C=C(C)/C(=N/O)[C@H]4OC/C(=C\C=C\[C@@H]2C)[C@]43O)O[C@@H](C)[C@@H]1O [Selamectin, reference compound] 1

Recall the recorded Fibrin % cell toxicity for CC[C@H]1OC(=O)[C@H](C)[C@@H](O[C@H]2C[C@@](C)(OC)[C@@H](O)[C@H](C)O2)[C@H](C)[C@@H](O[C@@H]2O[C@H](C)C[C@H](N(C)C)[C@H]2O)[C@](C)(O)C[C@@H](C)CN(C)[C@H](C)[C@@H](O)[C@]1(C)O [Azithromycin] with primary rat microglia and state it. 0

###

- Test system: primary rat microglia
- Test Method Notes: Cell toxicity (dead cells, size <150 μm2) in coated fibrin (cFib) assay;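 note: share of dead cells sized under 150 µm2 at 10 µM in fibrin-stimulated microglia HTS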
- Measurement Parameters: primary microglia HTS, fibrin assay, dead cells (size <150 μm2)
Where a name gives a salt, the structure may show the parent alone.
Recorded Fibrin % cell toxicity for the following compounds
The answer is to be given in %; state only the numeric part.

Observed Fibrin % cell toxicity on primary rat microglia for CN1CCC(=C2c3ccccc3Sc3ccccc32)CC1 [Pimethixene Maleate] , please. 6

Please state recorded Fibrin % cell toxicity (tested on primary rat microglia) of CCCCCCCCNC(C)C(O)c1ccc(SC(C)C)cc1 (stereo not drawn) 90

Lookup: Fibrin % cell toxicity / primary rat microglia / CN(C)C(=O)Oc1cc(OC(=O)N(C)C)cc(C(O)CNC(C)(C)C)c1 (stereo not drawn) 1

###

- Test system: fibrin- and LPS-induced microglia activation
- Test Method Notes: cells
- Type: cell-based, rat
- Measurement Parameters: HTS of 1907 compounds, quadrant by fibrin and LPS inhibition
Where a name gives a salt, the structure may show the parent alone.
Assay Endpoint: Quadrant (FIG. 5b)

| Compound | Target Of Assay | Quadrant (FIG. 5b) |
| --- | --- | --- |
| CN1CCN(CC/C=C2/c3ccccc3Sc3ccc(S(=O)(=O)N(C)C)cc32)CC1 [Thiothixene] | fibrin- and LPS-induced microglia activation | Q4 |
| COc1cc(C(=O)N2CCOCC2)cc(OC)c1OC [Trimetozine] | fibrin- and LPS-induced microglia activation | Q4 |
| Clc1ccc(C(OCCN2CCCCC2)c2ccccc2)cc1 (stereo not drawn) [Cloperastine hydrochloride, reference compound] | fibrin- and LPS-induced microglia activation | Q3 |
| CCC(Cc1c(I)cc(I)c(N)c1I)C(=O)O (stereo not drawn) [lopanic Acid] | fibrin- and LPS-induced microglia activation | Q3 |
| C[C@]12Cc3c[nH]nc3C[C@@H]1CC[C@@H]1[C@@H]2CC[C@@]2(C)[C@H]1CC[C@]2(C)O [Stanozolol] | fibrin- and LPS-induced microglia activation | Q4 |

// below: Quadrant (FIG. 5b) requested for another compound
Look up Quadrant (FIG. 5b) for this compound: c1ccc2c(c1)OCC(C1=NCCN1)O2 (stereo not drawn) [Idazoxan hydrochloride, reference compound] Q3

###

- System: primary rat microglia
Assay Endpoint: LPS % cell toxicity (%)
Write the number in % without appending the unit.

Answered examples (3):
| Compound | Test Value |
| --- | --- |
| C[C@@H]1C[C@H]2[C@@H]3C[C@H](F)C4=CC(=O)C=C[C@]4(C)[C@@]3(F)[C@@H](O)C[C@]2(C)[C@@]1(O)C(=O)COC(=O)C(C)(C)C [Flumethazone pivalate, reference compound] | 3 |
| C#CCN(C)CCCOc1ccc(Cl)cc1Cl.Cl | 0 |
| CCCCc1nc(Cl)c(CO)n1Cc1ccc(-c2ccccc2-c2nnn[nH]2)cc1 [Losartan, Losartan Potassium] | 1 |

// below: LPS % cell toxicity requested for another compound
Report LPS % cell toxicity for COc1cc2nc(N(C)CCCNC(=O)C3CCCO3)nc(N)c2cc1OC.Cl (stereo not shown) [Alfuzosin Hydrochloride, Alfuzosin] please. 0

###

- Tested on: LPS-induced microglia activation
- Test Method Notes: Image-based assay of LPS-induced microglia activation (HTS and dose response)
- Type: cell-based, rat
- Measurement Parameters: Rattus norvegicus, Microglia, 48 h; read-out: LPS % inhibition
Structures can show the parent of a compound that is named as a salt.
Response key: true (1) means inhibition at 10 µM >= 10%; false (0) means inhibition at 10 µM < 10%.

Example entries and their recorded answers appear below.
| Molecule | Class Label |
| --- | --- |
| CCCCOc1ccc(OCCCN2CCOCC2)cc1 | true (1) |
| NC(=O)CN1CCCC1=O | false (0) |
| CNC(C)C(O)c1ccccc1 (centres unmarked) [Racephedrine Hydrochloride] | true (1) |
| O=C(Nc1ccccc1)c1ccccc1O [Salicylanilide] | true (1) |
| CO[C@H]1/C=C/O[C@@]2(C)Oc3c(C)c(O)c4c(O)c(c5c(nc6cc(C)ccn65)c4c3C2=O)NC(=O)/C(C)=C\C=C\[C@H](C)[C@H](O)[C@@H](C)[C@@H](O)[C@@H](C)[C@H](OC(C)=O)[C@@H]1C | true (1) |
| CCOc1cc(CC(=O)N[C@@H](CC(C)C)c2ccccc2N2CCCCC2)ccc1C(=O)O [Repaglinide] | true (1) |

Given N[C@@H](CC(=O)N1CCn2c(nnc2C(F)(F)F)C1)Cc1cc(F)c(F)cc1F , state whether its inhibition at 10 µM is at least 10%. false (0)

###

- Test system: LPS-induced microglia activation
- Test Method Notes: Image-based assay of LPS-induced microglia activation (HTS and dose response)
- Type: cell-based, rat
- Measurement Parameters: Rattus norvegicus, Microglia, primary microglia HTS, LPS stimulation, compounds at 10 μM; read-out: LPS % inhibition
Respond with yes (1) for inhibition at 10 µM values of 7% and above, no (0) for values below.

Sample answers from the record:
| Compound | Target Of Assay | Class Label |
| --- | --- | --- |
| [N-]=[N+]=CC(=O)OC[C@H](N)C(=O)O [Azaserine] | LPS-induced microglia activation | no (0) |
| CC(C)CN(C[C@@H](O)[C@H](Cc1ccccc1)NC(=O)O[C@H]1CCOC1)S(=O)(=O)c1ccc(N)cc1 [Amprenavir] | LPS-induced microglia activation | no (0) |
| COc1ccc(-c2cc(=O)c3c(O)cc(O[C@@H]4O[C@H](CO[C@@H]5O[C@@H](C)[C@H](O)[C@@H](O)[C@H]5O)[C@@H](O)[C@H](O)[C@H]4O)cc3o2)cc1O [Diosmin] | LPS-induced microglia activation | yes (1) |

Would you say NCCS(=O)(=O)O [2-Aminoethanesulfonic Acid] shows inhibition at 10 µM at minimum 7%? yes (1)

Does inhibition at 10 µM meet or surpass 7% for Cc1c(O)c(=O)ccn1C [Deferiprone] ? yes (1)

Is inhibition at 10 µM at least 7%? Consider Nc1ccc(S(=O)(=O)c2ccc(N)cc2)cc1 [Dapsone] yes (1)

###

Counter-ions that a name gives are not always drawn.
primary rat microglia data, read-out Fibrin % cell toxicity
Give just the number in %; leave the unit off.

| Compound | Test Value |
| --- | --- |
| CC(=O)O[C@H]1CC[C@@]2(C)C(=CC[C@@H]3[C@@H]2CC[C@]2(C)C(=O)CC[C@@H]32)C1 [Praesterone Acetate, Prasterone Acetate] | 1 |

Can you look up Fibrin % cell toxicity on primary rat microglia for CCC(=O)OCC(=O)[C@@]1(OC(=O)CC)[C@@H](C)C[C@H]2[C@@H]3CCC4=CC(=O)C=C[C@]4(C)[C@@]3(F)[C@@H](O)C[C@@]21C [Betamethasone 17,21-dipropionate] ? 1

What Fibrin % cell toxicity appears in the records for this compound with primary rat microglia? CCCN1CCCC[C@H]1C(=O)Nc1c(C)cccc1C [Ropivacaine, Ropivacaine Hydrochloride] 1

Param readout = Fibrin % cell toxicity; param system = primary rat microglia; param query = Cn1c(=O)c2[nH]cnc2n(C)c1=O ; response: value 1

Record lookup: for primary rat microglia, what Fibrin % cell toxicity belongs to CN(CCOc1ccc(CC2SC(=O)NC2=O)cc1)c1ccccn1 (stereo not shown) [Rosiglitazone, Rosiglitazone Maleate] ? 1
